Source of measurements: ChEMBL document CHEMBL1131479

# measurement_target: UniProt:P28221
# Sequence (P28221 whole entry): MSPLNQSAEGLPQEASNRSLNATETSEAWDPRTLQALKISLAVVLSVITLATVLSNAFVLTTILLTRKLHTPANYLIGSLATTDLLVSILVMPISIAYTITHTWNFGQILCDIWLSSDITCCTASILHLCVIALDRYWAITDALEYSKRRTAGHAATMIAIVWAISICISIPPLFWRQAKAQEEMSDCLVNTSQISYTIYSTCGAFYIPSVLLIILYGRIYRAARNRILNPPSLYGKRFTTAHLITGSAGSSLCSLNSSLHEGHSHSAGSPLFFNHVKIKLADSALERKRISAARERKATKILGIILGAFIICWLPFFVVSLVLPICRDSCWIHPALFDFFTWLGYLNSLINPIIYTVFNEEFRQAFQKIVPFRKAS
# assay_procedure: The compound was tested for its binding affinity towards cloned human 5-hydroxytryptamine 1D receptor in CHO cells using [3H]5-HT.

# compound, unit, Ki
measured = [
    ("Cc1cccc(S(=O)(=O)N(C)[C@H](C)CCN2CCC(C)CC2)c1 [SB-258719]", "µM", 3.16),
]

###

# measurement_target: D(3) dopamine receptor (Homo sapiens, UniProt P35462)
# Sequence (P35462 whole entry): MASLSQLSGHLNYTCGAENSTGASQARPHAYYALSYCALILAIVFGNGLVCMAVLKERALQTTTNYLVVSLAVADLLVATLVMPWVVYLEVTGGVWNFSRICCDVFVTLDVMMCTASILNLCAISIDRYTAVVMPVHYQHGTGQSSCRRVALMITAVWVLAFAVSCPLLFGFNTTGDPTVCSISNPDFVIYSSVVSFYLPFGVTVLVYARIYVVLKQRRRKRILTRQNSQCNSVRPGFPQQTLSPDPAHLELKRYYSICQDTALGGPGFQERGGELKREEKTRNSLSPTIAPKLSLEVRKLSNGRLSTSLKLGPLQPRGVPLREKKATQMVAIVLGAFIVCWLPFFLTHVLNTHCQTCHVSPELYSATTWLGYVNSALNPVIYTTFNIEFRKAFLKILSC
# assay_procedure: The compound was tested for its binding affinity towards cloned human Dopamine receptor D3 in CHO cells using [125I]iodosulpiride.

# compound, Ki / µM
rows = [
    ("Cc1cccc(S(=O)(=O)N(C)[C@H](C)CCN2CCC(C)CC2)c1 [SB-258719]", 3.98),
]

###

# measurement_target: 5-hydroxytryptamine receptor 7 (Homo sapiens)
# Sequence (P34969 whole entry): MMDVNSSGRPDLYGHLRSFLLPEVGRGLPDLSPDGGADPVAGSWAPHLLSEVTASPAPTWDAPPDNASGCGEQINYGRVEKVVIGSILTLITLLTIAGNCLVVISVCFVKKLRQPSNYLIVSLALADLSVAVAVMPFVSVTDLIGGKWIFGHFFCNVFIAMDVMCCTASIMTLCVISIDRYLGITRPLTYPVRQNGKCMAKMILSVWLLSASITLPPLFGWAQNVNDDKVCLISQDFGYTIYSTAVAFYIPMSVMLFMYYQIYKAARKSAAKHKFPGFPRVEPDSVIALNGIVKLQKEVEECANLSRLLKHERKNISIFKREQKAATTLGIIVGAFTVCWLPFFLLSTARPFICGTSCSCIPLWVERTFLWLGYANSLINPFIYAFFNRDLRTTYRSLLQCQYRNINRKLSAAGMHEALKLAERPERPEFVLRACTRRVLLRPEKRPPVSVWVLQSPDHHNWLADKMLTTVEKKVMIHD
# assay_procedure: Binding affinity towards cloned human 5-hydroxytryptamine 7 receptor expressed in HEK 293 cells using [3H]5-CT
# Type: cell-based, HEK293
Measured log10 of Ki by item
outcome_measure: log10 of Ki (log10 of the value in nM)

# molecule, log10 of Ki
records = [
    ("CC1CCCN(CCC(C)N(C)S(=O)(=O)c2cccc3ccccc23)C1 (centres undefined)", 1.80),
    ("CC1CCN(CC[C@@H](C)N(C)S(=O)(=O)c2ccc(Cl)c(Cl)c2)CC1", 1.50),
    ("CC1CCN(CC[C@@H](C)N(C)S(=O)(=O)c2cccc3ccccc23)CC1", 1.50),
    ("C[C@@H]1CCCN(CC[C@@H](C)N(C)S(=O)(=O)c2cccc3ccccc23)C1", 2.10),
    ("C[C@@H]1CCCN(CC[C@H](C)N(C)S(=O)(=O)c2cccc3ccccc23)C1", 3.20),
    ("C[C@H]1CCCN(CC[C@@H](C)N(C)S(=O)(=O)c2cccc3ccccc23)C1", 2.80),
    ("CC1CCN(CC[C@@H](C)N(C)S(=O)(=O)c2ccc(Br)c(Br)c2)CC1", 1.30),
    ("CC1CCN(CC[C@@H](C)N(C)S(=O)(=O)c2cc(Br)c(Br)s2)CC1", 1.20),
]

###

# measurement_target: 5-hydroxytryptamine receptor 1A (Homo sapiens, UniProt P08908)
# Sequence (P08908 whole entry): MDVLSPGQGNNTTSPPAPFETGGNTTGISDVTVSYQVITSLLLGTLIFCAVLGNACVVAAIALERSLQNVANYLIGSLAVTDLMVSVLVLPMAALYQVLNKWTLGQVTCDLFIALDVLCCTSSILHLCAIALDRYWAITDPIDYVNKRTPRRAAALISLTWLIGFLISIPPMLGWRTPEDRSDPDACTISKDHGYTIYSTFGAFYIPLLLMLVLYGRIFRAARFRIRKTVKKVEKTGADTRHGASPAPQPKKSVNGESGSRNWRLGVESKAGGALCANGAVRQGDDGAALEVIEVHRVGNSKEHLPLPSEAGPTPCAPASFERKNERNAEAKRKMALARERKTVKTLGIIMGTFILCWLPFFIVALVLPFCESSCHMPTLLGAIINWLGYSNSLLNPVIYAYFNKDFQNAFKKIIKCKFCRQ
# assay_procedure: The compound was tested for its binding affinity towards cloned human 5-hydroxytryptamine 1A receptor in HEK 293 cells using [3H]8-OH-DPAT.
outcome_measure: Ki

# compound_string, observed_value
data = [
    ("Cc1cccc(S(=O)(=O)N(C)[C@H](C)CCN2CCC(C)CC2)c1", "> 7.94 µM"),
]
